Data origin: PubChem BioAssay AID2060622

Test system: 242566-281-R-J2-PDC complex spheroid viability
runDescription: Anticancer human tumor 242566-281-R-J2-PDC patient-derived pancreatic carcinoma cell line growth inhibition [CLK]
experimentalParameters: second compound 0.0316 µM; first compound 10 µM; active compounds read low
Excerpt: A high-throughput screen of multi-cell type tumor spheroids was designed to identify active combinations of […] and targeted small molecules. Complex spheroids include a stromal component modeled by human endothelial cells (HUVEC) and fibroblasts modeled by human mesenchymal stem cells (MSCs). […] Compounds. […] If the clinical Cmax for an agent had not been determined, the highest concentration tested was 10 microM. […]
Decide using viability, T/C alone. Strictly below 20%: 1.0. Equal to or above 20%: 0.0.

For orientation, consider the following solved cases.
CC(Nc1ccc2c(c1)OCCn1cc(N3C(=O)OCC3C(F)F)nc1-2)C(N)=O (stereo not given) + CNC(=O)c1ccc(Nc2nc(OC3CCCC3)c3c(-c4ccc5nc(C)oc5c4)c[nH]c3n2)c(OC)c1
0.0
C#Cc1c(F)ccc2cc(O)cc(-c3ncc4c(N5CC6CCC(C5)N6)nc(OCC56CCCN5CC(F)C6)nc4c3F)c12 (stereo not given) + CN1CCN(c2cc(C(=O)Nc3cc4cc(-c5cnn(C)c5)ccc4cn3)ccn2)CC1
1.0
CCCS(=O)(=O)Nc1ccc(F)c(C(=O)c2c[nH]c3ncc(-c4ccc(Cl)cc4)cc23)c1F + CN1CCN(c2cc(C(=O)Nc3cc4cc(-c5cnn(C)c5)ccc4cn3)ccn2)CC1
1.0

Now, please, on to the next compound.
Prompt: Determine if COc1ccc([C@@H](O)c2cc(-c3ncnc4cc(N5CCOCC5)ccc34)c(F)cc2Cl)nn1 + CNC(=O)c1ccc(Nc2nc(OC3CCCC3)c3c(-c4ccc5nc(C)oc5c4)c[nH]c3n2)c(OC)c1 shows viability, T/C strictly lower than 20%.
Response: 0.0

---

System: 242566-281-R-J2-PDC complex spheroid viability
runDescription: Anticancer human tumor 242566-281-R-J2-PDC cell line growth inhibition [CLK];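 note: spheroids exposed to compounds for 7 days before readout; 100% = DMSO vehicle control wells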
experimentalParameters: second compound 0.0316 µM; first compound 0.1 µM; active compounds read low
metric: viability, T/C (%)
Respond numerically; units are % and should not be typed.

CCCS(=O)(=O)Nc1ccc(F)c(C(=O)c2c[nH]c3ncc(-c4ccc(Cl)cc4)cc23)c1F + CNC(=O)c1ccc(Nc2nc(OC3CCCC3)c3c(-c4ccc5nc(C)oc5c4)c[nH]c3n2)c(OC)c1
99.1
CC1(C)CCC(CN2CCN(c3ccc(C(=O)NS(=O)(=O)c4ccc(NCC5CCOCC5)c([N+](=O)[O-])c4)c(Oc4cnc5[nH]ccc5c4)c3)CC2)=C(c2ccc(Cl)cc2)C1 + CN1CCN(c2cc(C(=O)Nc3cc4cc(-c5cnn(C)c5)ccc4cn3)ccn2)CC1
109
COc1ccc([C@@H](O)c2cc(-c3ncnc4cc(N5CCOCC5)ccc34)c(F)cc2Cl)nn1 + CNC(=O)c1ccc(Nc2nc(OC3CCCC3)c3c(-c4ccc5nc(C)oc5c4)c[nH]c3n2)c(OC)c1
96.5
CC(=O)O[C@H]1C(=O)[C@@]2(C)[C@H]([C@H](OC(=O)c3ccccc3)[C@]3(O)C[C@H](OC(=O)[C@H](O)[C@@H](NC(=O)c4ccccc4)c4ccccc4)C(C)=C1C3(C)C)[C@]1(OC(C)=O)CO[C@@H]1C[C@@H]2O + CNC(=O)c1ccc(Nc2nc(OC3CCCC3)c3c(-c4ccc5nc(C)oc5c4)c[nH]c3n2)c(OC)c1
47.7

Kindly note the recorded viability, T/C for COc1cccc2c1C(=O)c1c(O)c3c(c(O)c1C2=O)CC(O)(C(=O)CO)CC3OC1CC(N)C(O)C(C)O1 (centres undefined) + CNC(=O)c1ccc(Nc2nc(OC3CCCC3)c3c(-c4ccc5nc(C)oc5c4)c[nH]c3n2)c(OC)c1 , which is 64.8

So for O=C(c1cc(Cc2n[nH]c(=O)c3ccccc23)ccc1F)N1CCN(C(=O)C2CC2)CC1 + CN1CCN(c2cc(C(=O)Nc3cc4cc(-c5cnn(C)c5)ccc4cn3)ccn2)CC1 , the logged viability, T/C turned out to be 98

Entry Cn1ncnc1[C@H]1c2n[nH]c(=O)c3cc(F)cc(c23)N[C@@H]1c1ccc(F)cc1 + CNC(=O)c1ccc(Nc2nc(OC3CCCC3)c3c(-c4ccc5nc(C)oc5c4)c[nH]c3n2)c(OC)c1 ; viability, T/C = 98.8

viability, T/C measured on O=C(c1cc(Cc2n[nH]c(=O)c3ccccc23)ccc1F)N1CCN(C(=O)C2CC2)CC1 + CNC(=O)c1ccc(Nc2nc(OC3CCCC3)c3c(-c4ccc5nc(C)oc5c4)c[nH]c3n2)c(OC)c1 = 110

Briefly, viability, T/C measured for Nc1ccccc1NC(=O)c1ccc(CNC(=O)OCc2cccnc2)cc1 + CN1CCN(c2cc(C(=O)Nc3cc4cc(-c5cnn(C)c5)ccc4cn3)ccn2)CC1 : 96.1

---

Tested on: 242566-281-R-J2-PDC complex spheroid viability
runDescription: Anticancer human tumor 242566-281-R-J2-PDC cell line growth inhibition [CLK]; active means viability on the fitted dose curve at most 10% of control; inactive means the rest;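 note: spheroids exposed to compounds for 7 days before readout; 100% = DMSO vehicle control wells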
experimentalParameters: second compound 0.0316 µM; first compound 0.316 µM
Your answer must be one of the following: class 1 (active), class 0 (inactive)

Take a look at these entries with their results.
C=CC(=O)N1CCN(c2nc(=O)n(-c3c(C)ccnc3C(C)C)c3nc(-c4c(O)cccc4F)c(F)cc23)C(C)C1 (centres undefined) + CN1CCN(c2cc(C(=O)Nc3cc4cc(-c5cnn(C)c5)ccc4cn3)ccn2)CC1
class 0
CC(=O)O[C@H]1C(=O)[C@@]2(C)[C@H]([C@H](OC(=O)c3ccccc3)[C@]3(O)C[C@H](OC(=O)[C@H](O)[C@@H](NC(=O)c4ccccc4)c4ccccc4)C(C)=C1C3(C)C)[C@]1(OC(C)=O)CO[C@@H]1C[C@@H]2O + CNC(=O)c1ccc(Nc2nc(OC3CCCC3)c3c(-c4ccc5nc(C)oc5c4)c[nH]c3n2)c(OC)c1
class 0
CCc1c2c(nc3ccc(O)cc13)-c1cc3c(c(=O)n1C2)COC(=O)[C@]3(O)CC + CNC(=O)c1ccc(Nc2nc(OC3CCCC3)c3c(-c4ccc5nc(C)oc5c4)c[nH]c3n2)c(OC)c1
class 1

Okay, now this compound:
Prompt: So what was the verdict on COc1c(OCCCN2CCOCC2)ccc2c3n(c(=NC(=O)c4cnc(N)nc4)nc12)CCN3 + CN1CCN(c2cc(C(=O)Nc3cc4cc(-c5cnn(C)c5)ccc4cn3)ccn2)CC1 in this test?
Response: class 0

---

Listed here are compounds together with their documented viability, T/C.
Tested on: 242566-281-R-J2-PDC complex spheroid viability
runDescription: Anticancer human tumor 242566-281-R-J2-PDC cell line growth inhibition [CLK];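 note: spheroids exposed to compounds for 7 days before readout; 100% = DMSO vehicle control wells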
experimentalParameters: second compound 0.0316 µM; first compound 0.316 µM; active compounds read low
Quick reminder: number only, in %, skip the unit.

Worked cases, answers included:
COC1C=CCC(C)C(C)S(=O)(=O)NC(=O)c2ccc3c(c2)N(CC2CCC21)CC1(CCCc2cc(Cl)ccc21)CO3 (stereo not drawn) + CNC(=O)c1ccc(Nc2nc(OC3CCCC3)c3c(-c4ccc5nc(C)oc5c4)c[nH]c3n2)c(OC)c1
72
C#Cc1c(F)ccc2cc(O)cc(-c3ncc4c(N5CC6CCC(C5)N6)nc(OCC56CCCN5CC(F)C6)nc4c3F)c12 (stereo not drawn) + CN1CCN(c2cc(C(=O)Nc3cc4cc(-c5cnn(C)c5)ccc4cn3)ccn2)CC1
34

For the compound O=c1[nH]cc(F)c(=O)[nH]1 + CNC(=O)c1ccc(Nc2nc(OC3CCCC3)c3c(-c4ccc5nc(C)oc5c4)c[nH]c3n2)c(OC)c1 , the measured viability, T/C on 242566-281-R-J2-PDC complex spheroid viability was 83.9

---

// viability, T/C lookup, one value per entry
Test system: 242566-281-R-J2-PDC complex spheroid viability
runDescription: Anticancer human tumor 242566-281-R-J2-PDC cell line growth inhibition [CLK];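 note: spheroids exposed to compounds for 7 days before readout; 100% = DMSO vehicle control wells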
experimentalParameters: second compound 0.316 µM; first compound 0.01 µM; active compounds read low
Respond with the bare value in %.

Sample records with viability, T/C:
Cn1ncnc1[C@H]1c2n[nH]c(=O)c3cc(F)cc(c23)N[C@@H]1c1ccc(F)cc1 + CN1CCN(c2cc(C(=O)Nc3cc4cc(-c5cnn(C)c5)ccc4cn3)ccn2)CC1
30.9
Cn1ncnc1[C@H]1c2n[nH]c(=O)c3cc(F)cc(c23)N[C@@H]1c1ccc(F)cc1 + CNC(=O)c1ccc(Nc2nc(OC3CCCC3)c3c(-c4ccc5nc(C)oc5c4)c[nH]c3n2)c(OC)c1
89.9
CCN1CCN(Cc2ccc(Nc3ncc(F)c(-c4cc(F)c5nc(C)n(C(C)C)c5c4)n3)nc2)CC1 + CNC(=O)c1ccc(Nc2nc(OC3CCCC3)c3c(-c4ccc5nc(C)oc5c4)c[nH]c3n2)c(OC)c1
98
CCc1c2c(nc3ccc(O)cc13)-c1cc3c(c(=O)n1C2)COC(=O)[C@]3(O)CC + CNC(=O)c1ccc(Nc2nc(OC3CCCC3)c3c(-c4ccc5nc(C)oc5c4)c[nH]c3n2)c(OC)c1
21.2
COc1c(OCCCN2CCOCC2)ccc2c3n(c(=NC(=O)c4cnc(N)nc4)nc12)CCN3 + CNC(=O)c1ccc(Nc2nc(OC3CCCC3)c3c(-c4ccc5nc(C)oc5c4)c[nH]c3n2)c(OC)c1
70.9
COc1c(OCCCN2CCOCC2)ccc2c3n(c(=NC(=O)c4cnc(N)nc4)nc12)CCN3 + CN1CCN(c2cc(C(=O)Nc3cc4cc(-c5cnn(C)c5)ccc4cn3)ccn2)CC1
28.9
CCc1c2c(nc3ccc(O)cc13)-c1cc3c(c(=O)n1C2)COC(=O)[C@]3(O)CC + CN1CCN(c2cc(C(=O)Nc3cc4cc(-c5cnn(C)c5)ccc4cn3)ccn2)CC1
7.58

We next turn to a different compound, shown below.
Just so you know, measured viability, T/C for CCN1CCN(Cc2ccc(Nc3ncc(F)c(-c4cc(F)c5nc(C)n(C(C)C)c5c4)n3)nc2)CC1 + CN1CCN(c2cc(C(=O)Nc3cc4cc(-c5cnn(C)c5)ccc4cn3)ccn2)CC1 came out at 40.8
